The reported numbers originate from paper PMC10175095.

Mean measured concentration: recorded values
method_notes: Long-term stability of unprocessed plasma samples at −80°C
Assay type: in vitro ADME
condition_info: human plasma, 12 months, nominal 150 ng/mL
Express your answer in ng/mL, writing the number without its unit.

Use these answered entries as a reference point.
compound: Cc1nc2c(F)cc(-c3nc(Nc4ccc(CN5CCNCC5)cn4)ncc3F)cc2n1C(C)C [Abemaciclib-M2]
Mean measured concentration / ng/mL: 166
//
compound: CN(C)C(=O)c1cc2cnc(Nc3ccc(N4CCNCC4)cn3)nc2n1C1CCCC1 [Ribociclib, ribociclib]
Mean measured concentration / ng/mL: 161

Query: Identify measured Mean measured concentration associated with CC(=O)c1c(C)c2cnc(Nc3ccc(N4CCNCC4)cn3)nc2n(C2CCCC2)c1=O [Palbociclib, palbociclib]
Result: 157

Query: Identify measured Mean measured concentration associated with CCN1CCN(Cc2ccc(Nc3ncc(F)c(-c4cc(F)c5nc(C)n(C(C)C)c5c4)n3)nc2)CC1 [Abemaciclib, abemaciclib]
Result: 164
